Assign Emax to each entry below.
- Assay target: human F508del CFTR (Homo sapiens (Human), UniProt P13569, DEL508-508)
- Sequence (P13569 other isoform, or with tags, fused parts or gaps del F508-F508): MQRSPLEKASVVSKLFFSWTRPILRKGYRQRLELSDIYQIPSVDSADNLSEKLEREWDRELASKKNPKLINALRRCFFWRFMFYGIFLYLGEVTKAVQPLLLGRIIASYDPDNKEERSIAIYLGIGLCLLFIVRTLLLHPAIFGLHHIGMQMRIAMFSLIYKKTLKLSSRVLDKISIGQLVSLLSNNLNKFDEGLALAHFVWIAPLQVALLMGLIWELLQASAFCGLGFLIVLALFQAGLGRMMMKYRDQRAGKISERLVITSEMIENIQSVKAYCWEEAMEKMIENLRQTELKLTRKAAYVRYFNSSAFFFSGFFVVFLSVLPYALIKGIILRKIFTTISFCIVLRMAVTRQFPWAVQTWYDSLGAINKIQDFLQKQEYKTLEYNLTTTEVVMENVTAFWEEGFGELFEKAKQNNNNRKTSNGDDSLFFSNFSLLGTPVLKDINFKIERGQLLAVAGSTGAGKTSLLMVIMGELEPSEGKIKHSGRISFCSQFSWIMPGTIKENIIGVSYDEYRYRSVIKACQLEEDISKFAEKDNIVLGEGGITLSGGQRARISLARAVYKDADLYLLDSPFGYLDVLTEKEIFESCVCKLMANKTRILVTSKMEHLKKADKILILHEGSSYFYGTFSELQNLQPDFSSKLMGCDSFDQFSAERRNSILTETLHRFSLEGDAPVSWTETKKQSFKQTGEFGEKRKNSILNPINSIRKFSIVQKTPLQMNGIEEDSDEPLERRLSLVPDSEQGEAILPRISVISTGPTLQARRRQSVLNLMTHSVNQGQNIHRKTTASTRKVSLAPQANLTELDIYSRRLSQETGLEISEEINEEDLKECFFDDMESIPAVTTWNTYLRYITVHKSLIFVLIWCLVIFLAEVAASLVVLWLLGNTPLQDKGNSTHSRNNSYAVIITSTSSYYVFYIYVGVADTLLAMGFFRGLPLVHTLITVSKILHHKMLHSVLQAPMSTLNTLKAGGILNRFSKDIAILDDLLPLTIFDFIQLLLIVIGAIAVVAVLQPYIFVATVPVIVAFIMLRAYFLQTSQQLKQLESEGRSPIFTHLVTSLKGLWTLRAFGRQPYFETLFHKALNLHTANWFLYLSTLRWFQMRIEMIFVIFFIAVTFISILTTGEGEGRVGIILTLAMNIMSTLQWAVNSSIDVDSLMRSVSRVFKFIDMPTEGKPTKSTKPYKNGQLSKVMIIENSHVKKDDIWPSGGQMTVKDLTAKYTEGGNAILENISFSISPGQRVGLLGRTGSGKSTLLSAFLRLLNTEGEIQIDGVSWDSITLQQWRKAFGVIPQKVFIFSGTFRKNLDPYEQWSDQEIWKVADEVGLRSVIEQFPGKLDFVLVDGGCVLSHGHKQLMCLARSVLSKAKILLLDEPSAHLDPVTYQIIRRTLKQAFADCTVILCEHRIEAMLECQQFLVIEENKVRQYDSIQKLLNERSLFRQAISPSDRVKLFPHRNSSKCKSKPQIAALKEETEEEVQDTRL
- Assay remarks: CFTR-YFP High Throughput Assay (YFP halide flux, FRT cells)
- Format: cell-based
- Run parameters: EMax normalized to the positive control; FRT cells expressing human F508del CFTR and YFP; read-out: % Efficacy
- Procedure: Assays for Detecting and Measuring the Effect of Compounds on F508del-CFTR Channels CFTR-YFP Assay-CFTR Corrector Protocol: […] YFP fluorescence intensity values are acquired at high speed before and after iodide buffer is injected to the assay cells. Iodide enters the cells via active CFTR channels in the plasma membrane, and quenches the YFP fluorescence. The rate of fluorescence quenching is proportionate to the total CFTR activity in the cell membrane. […]

Fill blank: measured Emax of the molecule Cc1nc2ccc(N(C)C(=O)Cn3nc(-c4cccc(Cl)c4)c4ccc(OC5CCCCC5)cc4c3=O)cc2o1 [Example 26] is ____.
> 80%

Fill blank: measured Emax of the molecule CCN(C(=O)Cn1nc(-c2cccc(F)c2)c2ccc(OC)cc2c1=O)c1ccc2nc(C)oc2c1 [Example 8] is ____.
> 80%

Fill blank: measured Emax of the molecule Cc1nc2ccc(N(C)C(=O)Cn3nc(-c4cccc(F)c4)c4ccc(O)cc4c3=O)cc2o1 [Example 13] is ____.
> 80%

Fill blank: measured Emax of the molecule Cc1nc2ccc(N(C(=O)Cn3nc(-c4cccc(F)c4)c4ccc(O)cc4c3=O)C3CC3)cc2o1 [Example 14] is ____.
30 to 80%

Fill blank: measured Emax of the molecule CCN(C(=O)Cn1nc(-c2cccc(Cl)c2)c2ccc(OC)cc2c1=O)c1ccc2nc(C)oc2c1 [Example 9] is ____.
> 80%

Fill blank: measured Emax of the molecule COc1cc2c(=O)n(CC(=O)N(C)c3ccc4nc(C)oc4c3)nc(-c3cccc(Cl)c3)c2cc1Cl [Example 11] is ____.
> 80%

Fill blank: measured Emax of the molecule Cc1nc2ccc(N(C)C(=O)Cn3nc(-c4cccc(Cl)c4)c4ccc(O)cc4c3=O)cc2o1 [Example 16] is ____.
> 80%

Fill blank: measured Emax of the molecule CCOc1ccc2c(-c3cccc(Cl)c3)nn(CC(=O)N(C)c3ccc4nc(C)oc4c3)c(=O)c2c1 [Example 19] is ____.
> 80%

Fill blank: measured Emax of the molecule COc1ccc2c(-c3cccc(Cl)c3)nn(CC(=O)N(C)c3ccc4nc(C)oc4c3)c(=O)c2c1 [Example 4] is ____.
> 80%

Fill blank: measured Emax of the molecule COc1ccc2c(-c3cccc(F)c3)nn(CC(=O)N(C)c3ccc4nc(C)oc4c3)c(=O)c2c1 [Example 3] is ____.
30 to 80%
